Data provenance is the supplement of paper PMC3545927.

molecular target: furin, P09958; assay: furin cleavage Z-score vs untreated control; higher = more cleavage, active = 3.5 or more, inactive = 1 or less, 8 variable residues between constant flanks; details: 15 min;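 also: purified furin at 1:10 enzyme:substrate in 50 mM HEPES pH 7.5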
Sequence (P09958 whole entry): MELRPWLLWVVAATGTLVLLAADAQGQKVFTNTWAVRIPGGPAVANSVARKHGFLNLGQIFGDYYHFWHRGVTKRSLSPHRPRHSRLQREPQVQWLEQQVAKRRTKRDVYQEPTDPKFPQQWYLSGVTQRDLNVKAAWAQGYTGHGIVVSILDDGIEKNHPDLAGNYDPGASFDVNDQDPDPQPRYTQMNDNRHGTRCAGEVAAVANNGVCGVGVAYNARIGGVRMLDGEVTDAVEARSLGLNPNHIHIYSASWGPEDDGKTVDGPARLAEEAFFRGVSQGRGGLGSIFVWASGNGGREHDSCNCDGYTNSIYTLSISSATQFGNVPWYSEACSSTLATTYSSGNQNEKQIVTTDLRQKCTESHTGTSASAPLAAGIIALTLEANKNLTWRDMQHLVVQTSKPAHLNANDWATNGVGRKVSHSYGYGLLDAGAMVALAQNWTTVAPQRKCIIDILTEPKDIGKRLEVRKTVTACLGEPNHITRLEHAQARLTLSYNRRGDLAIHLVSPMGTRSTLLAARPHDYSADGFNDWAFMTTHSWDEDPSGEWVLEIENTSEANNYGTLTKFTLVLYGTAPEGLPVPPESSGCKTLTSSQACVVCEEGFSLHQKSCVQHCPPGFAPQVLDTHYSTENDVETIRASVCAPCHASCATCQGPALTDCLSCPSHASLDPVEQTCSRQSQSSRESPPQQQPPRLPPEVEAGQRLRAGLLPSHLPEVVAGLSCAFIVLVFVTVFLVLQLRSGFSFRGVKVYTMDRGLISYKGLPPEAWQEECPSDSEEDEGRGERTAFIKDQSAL
The other results are listed elsewhere or left out. The true hit rate is not given.
Parameter call: string, one of yes = active, no = inactive

>  <Query sequence>
CARSRRKLMVAGNASASA [FS-2817]

>  <Cat>
no

$$$$

Turning now to a further sequence:
Exercise: Write down the call the test reported for this sequence. Item: CAPIIQRLHGAGNASASA [HC1601]
Solution: no
